// provenance: paper PMC8968063

- experimental.system: human MPC1L/MPC2 complex (Homo sapiens, UniProt O95563+P0DKB6)
- Construct: eight-histidine tag (C, cleaved yes); TEV protease cleavage site (part stays on MPC2 after digestion) (C, cleaved yes); made in house; host or cells: Saccharomyces cerevisiae SHY15 (mpc triple deletion strain), purified from mitochondria
- Sequence (P0DKB6 2-136): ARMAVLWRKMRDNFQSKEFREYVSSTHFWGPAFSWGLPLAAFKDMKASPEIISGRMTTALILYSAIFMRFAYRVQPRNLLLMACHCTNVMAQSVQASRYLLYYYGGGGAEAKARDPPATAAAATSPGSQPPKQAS
- Sequence (O95563 2-127): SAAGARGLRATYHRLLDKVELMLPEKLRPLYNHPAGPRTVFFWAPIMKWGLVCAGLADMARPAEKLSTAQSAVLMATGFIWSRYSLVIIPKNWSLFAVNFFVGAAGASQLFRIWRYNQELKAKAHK
- assay.overview: nano-DSF thermostability shift assay, purified MPC1L/MPC2
- Assay type: binding
- condition.summary: inhibitor 100 μM; unliganded 51.9 ± 0.1; mean ± s.d., 2 biological repeats
measurement.label: Tm, nano-DSF (°C)
# output: bare number, implied unit °C

Suppose we examine the compound O=C(O)c1nn(Cc2ccc(Cl)cc2Cl)c2ccccc12 ; what Tm, nano-DSF value has been reported?
52.5

Another compound: N#CC(=Cc1cn(-c2ccccc2)c2ccccc12)C(=O)O [UK5099, α-cyano-β-(1-phenylindol-3-yl)-acrylate]
61.1

Another: N#CC(=Cc1ccc(O)cc1)C(=O)O [CHC, α-cyano-4-hydroxy-cinnamate]
58.9

Also check CCc1ccc(C(=O)COc2ccc(CC3SC(=O)NC3=O)cc2)nc1 (stereo not shown)
53.8

---

Hi there, I'd appreciate the recorded Tm, nano-DSF for every entry that follows.
- experimental.system: human MPC1L/MPC2 complex (Homo sapiens, UniProt O95563+P0DKB6)
- Construct: eight-histidine tag (C, cleaved yes); TEV protease cleavage site (part stays on MPC2 after digestion) (C, cleaved yes); made in house; host or cells: Saccharomyces cerevisiae SHY15 (mpc triple deletion strain), purified from mitochondria
- assay.overview: nano-DSF thermostability shift assay, purified MPC1L/MPC2
- Type: binding
- condition.summary: inhibitor 100 μM; unliganded 51.9 ± 0.1; mean ± s.d., 2 biological repeats
- Experimental: Ligand binding was also assessed using dye-free nano differential scanning fluorimetry (nano-DSF) to monitor fluorescence changes due to altered environments of tryptophan and tyrosine residues during unfolding. […] The intrinsic fluorescence was measured using the NanoTemper Prometheus NT.48 (NanoTemper, München, Germany).
Provide the reading as a plain figure in °C.

So what's the measured Tm, nano-DSF for this one? CCCOc1ccccc1-c1nc2nn[nH]c2c(=O)[nH]1
58.2

Then what about the molecule CCCC(CCC)C(=O)O ?
51.8

Same for COc1cc(C2Oc3cc([C@H]4Oc5cc(O)cc(O)c5C(=O)[C@@H]4O)ccc3OC2CO)ccc1O (some centres unmarked)
52.1

// repeat for CCc1ccc(CCOc2ccc(CC3SC(=O)NC3=O)cc2)nc1 (centres unmarked) and report
53.0

Please give the result for CCN(CC)C(=O)/C(C#N)=C/c1cc(O)c(O)c([N+](=O)[O-])c1 too.
58.2
